assay: Octanol-phosphate buffer partition coefficient, log D of the compound at pH 7.4; type: physicochemical
Please respond with reported logD for every item in the list.
Enter a number only.

What value of measured logD is listed for Cn1cc(-c2cnc3oc4c(-c5ccn(C)n5)nc(=O)n(CCC5CCCO5)c4c3c2)cn1 (centres undefined) ?
0.9

What value of measured logD is listed for CC[C@H]1C[C@@H](n2c(=O)nc(-c3cnn(C)c3)c3oc4ccc(-c5cn(C)cn5)nc4c32)CCO1 (relative stereo) ?
2.7

What value of measured logD is listed for Cn1cc(-c2cnc3oc4c(-c5cscn5)nc(=O)n(CCC5CCCO5)c4c3c2)cn1 (centres undefined) ?
1.5

What value of measured logD is listed for COc1ccc(-c2nc(=O)n(CCC3CCCO3)c3c2oc2ncc(-c4cnn(C)c4)cc23)cc1 (centres undefined) ?
3.5

----------
Please respond with reported solubility at 24 h for every item in the list.
assay: Aqueous solubility of the compound in phosphate buffer at pH 2 after 24 hrs; assay type: physicochemical

What value of measured solubility at 24 h is listed for CC[C@H]1C[C@@H](n2c(=O)nc(-c3cnn(C)c3)c3oc4ccc(-c5cncn5C)cc4c32)CCO1 (relative stereo) ?
> 920 µg/mL

What value of measured solubility at 24 h is listed for CC[C@H]1C[C@@H](n2c(=O)nc(-c3cnn(C)c3)c3oc4ccc(-c5cnn(C)c5)cc4c32)CCO1 (relative stereo) ?
< 0.1 µg/mL

What value of measured solubility at 24 h is listed for CC[C@H]1C[C@@H](n2c(=O)nc(-c3cnn(C)c3)c3oc4cc(C#N)c(-c5cnn(C)c5)cc4c32)CCO1 (relative stereo) ?
0.2 µg/mL

What value of measured solubility at 24 h is listed for CC[C@H]1C[C@@H](n2c(=O)nc(-c3cnn(C)c3)c3oc4ncc(-c5cn(C)cn5)cc4c32)CCO1 (relative stereo) ?
> 1000 µg/mL

What value of measured solubility at 24 h is listed for CC[C@H]1C[C@@H](n2c(=O)nc(-c3cnn(C)c3)c3oc4cnc(-c5cnn(C)c5)cc4c32)CCO1 (relative stereo) ?
< 0.1 µg/mL

What value of measured solubility at 24 h is listed for CC[C@H]1C[C@@H](n2c(=O)nc(-c3cnn(C)c3)c3oc4cc(C#N)c(-c5cnn(C)c5)nc4c32)CCO1 (relative stereo) ?
7.9 µg/mL

What value of measured solubility at 24 h is listed for CC[C@H]1C[C@@H](n2c(=O)nc(-c3cnn(C)c3)c3oc4ccc(-c5cn(C)cn5)cc4c32)CCO1 (relative stereo) ?
> 1000 µg/mL

What value of measured solubility at 24 h is listed for CC[C@H]1C[C@@H](n2c(=O)nc(-c3cnn(C)c3)c3oc4ccc(-c5cn(C)cn5)nc4c32)CCO1 (relative stereo) ?
> 480 µg/mL

What value of measured solubility at 24 h is listed for CC[C@H]1C[C@@H](n2c(=O)nc(-c3cnn(C)c3)c3oc4ccc(-c5cnn(C)c5)nc4c32)CCO1 (relative stereo) ?
0.2 µg/mL

What value of measured solubility at 24 h is listed for CC[C@H]1C[C@@H](n2c(=O)nc(-c3cnn(C)c3)c3oc4cnc(-c5cn(C)cn5)cc4c32)CCO1 (relative stereo) ?
420 µg/mL

----------
tested on: Rattus norvegicus; assay: Clearance in rat at 2 mg/kg, iv; assay type: ADME, organism-based; parameters: dose 2 mg/kg, route intravenous; conditions: in vivo
Please respond with reported CL for every item in the list.
// units = %; emit number, no label

What value of measured CL is listed for CC[C@H]1C[C@@H](n2c(=O)nc(-c3cnn(C)c3)c3oc4ccc(-c5cn(C)cn5)nc4c32)CCO1 (relative stereo) ?
9.4

What value of measured CL is listed for CC[C@H]1C[C@@H](n2c(=O)nc(-c3cnn(C)c3)c3oc4cc(C#N)c(-c5cnn(C)c5)nc4c32)CCO1 (relative stereo) ?
4.6

What value of measured CL is listed for CC[C@H]1C[C@@H](n2c(=O)nc(-c3cnn(C)c3)c3oc4ccc(-c5cn(C)cn5)cc4c32)CCO1 (relative stereo) ?
13

What value of measured CL is listed for CC[C@H]1C[C@@H](n2c(=O)nc(-c3cnn(C)c3)c3oc4ccc(-c5cnn(C)c5)nc4c32)CCO1 (relative stereo) ?
18

What value of measured CL is listed for CC[C@H]1C[C@@H](n2c(=O)nc(-c3ccc(NC)nc3)c3oc4ncc(-c5cnn(C)c5)cc4c32)CCO1 (racemic) ?
19

What value of measured CL is listed for CC[C@H]1C[C@@H](n2c(=O)nc(-c3cnn(C)c3)c3oc4cnc(-c5cnn(C)c5)cc4c32)CCO1 (relative stereo) ?
18

What value of measured CL is listed for CNc1ccc(-c2nc(=O)n(CC[C@@H]3CCCO3)c3c2oc2ncc(-c4cnn(C)c4)cc23)cn1 ?
37

----------
Please respond with reported logD for every item in the list.
assay: Octanol-phosphate buffer partition coefficient, log D of the compound at pH 7.4; assay type: physicochemical

What value of measured logD is listed for CNc1ccc(-c2nc(=O)n(CCC3CCCCO3)c3c2oc2ncc(-c4cnn(C)c4)cc23)cn1 (centres undefined) ?
3.2

What value of measured logD is listed for CC[C@H]1C[C@@H](n2c(=O)nc(-c3cnn(C)c3)c3oc4ccc(-c5cncn5C)cc4c32)CCO1 (relative stereo) ?
2.3

What value of measured logD is listed for CCn1cc(-c2nc(=O)n(CCC3CCCO3)c3c2oc2ncc(-c4cnn(C)c4)cc23)cn1 (centres undefined) ?
2.2

What value of measured logD is listed for CC[C@H]1C[C@@H](n2c(=O)nc(-c3cnn(C)c3)c3oc4cc(C#N)c(-c5cnn(C)c5)cc4c32)CCO1 (relative stereo) ?
2.5

----------
test: Oral bioavailability in rat at 5 mg/kg; type: ADME, organism-based; conditions: in vivo
PROPERTY LABEL: bioavailability (%)
// units = %; emit number, no label

What value of measured bioavailability is listed for CC[C@H]1C[C@@H](n2c(=O)nc(-c3cnn(C)c3)c3oc4cnc(-c5cnn(C)c5)cc4c32)CCO1 (relative stereo) ?
88

What value of measured bioavailability is listed for CNc1ccc(-c2nc(=O)n(CC[C@@H]3CCCO3)c3c2oc2ncc(-c4cnn(C)c4)cc23)cn1 ?
36

What value of measured bioavailability is listed for CC[C@H]1C[C@@H](n2c(=O)nc(-c3ccc(NC)nc3)c3oc4ncc(-c5cnn(C)c5)cc4c32)CCO1 (racemic) ?
34

What value of measured bioavailability is listed for CC[C@H]1C[C@@H](n2c(=O)nc(-c3cnn(C)c3)c3oc4cc(C#N)c(-c5cnn(C)c5)nc4c32)CCO1 (relative stereo) ?
94

What value of measured bioavailability is listed for CC[C@H]1C[C@@H](n2c(=O)nc(-c3cnn(C)c3)c3oc4ccc(-c5cn(C)cn5)nc4c32)CCO1 (relative stereo) ?
69

What value of measured bioavailability is listed for CC[C@H]1C[C@@H](n2c(=O)nc(-c3cnn(C)c3)c3oc4ccc(-c5cnn(C)c5)nc4c32)CCO1 (relative stereo) ?
35

What value of measured bioavailability is listed for CC[C@H]1C[C@@H](n2c(=O)nc(-c3cnn(C)c3)c3oc4ccc(-c5cn(C)cn5)cc4c32)CCO1 (relative stereo) ?
51

----------
experiment: Aqueous solubility of the compound in phosphate buffer at pH 6.8 after 24 hrs; format: physicochemical
Please respond with reported solubility at 24 h for every item in the list.
Answer format: value, then unit.

What value of measured solubility at 24 h is listed for CC[C@H]1C[C@@H](n2c(=O)nc(-c3cnn(C)c3)c3oc4ncc(-c5cn(C)cn5)cc4c32)CCO1 (relative stereo) ?
2.8 µg/mL

What value of measured solubility at 24 h is listed for CC[C@H]1C[C@@H](n2c(=O)nc(-c3cnn(C)c3)c3oc4ccc(-c5cnn(C)c5)nc4c32)CCO1 (relative stereo) ?
0.2 µg/mL

What value of measured solubility at 24 h is listed for CC[C@H]1C[C@@H](n2c(=O)nc(-c3cnn(C)c3)c3oc4ccc(-c5cn(C)cn5)cc4c32)CCO1 (relative stereo) ?
5 µg/mL

Taken from ChEMBL document CHEMBL2396591.
